- assayed-system: Recombinant human His6-USP1/His6-UAF1 complex protein (Homo sapiens, UniProt O94782)
- Construct: His6
- Sequence (O94782 whole entry): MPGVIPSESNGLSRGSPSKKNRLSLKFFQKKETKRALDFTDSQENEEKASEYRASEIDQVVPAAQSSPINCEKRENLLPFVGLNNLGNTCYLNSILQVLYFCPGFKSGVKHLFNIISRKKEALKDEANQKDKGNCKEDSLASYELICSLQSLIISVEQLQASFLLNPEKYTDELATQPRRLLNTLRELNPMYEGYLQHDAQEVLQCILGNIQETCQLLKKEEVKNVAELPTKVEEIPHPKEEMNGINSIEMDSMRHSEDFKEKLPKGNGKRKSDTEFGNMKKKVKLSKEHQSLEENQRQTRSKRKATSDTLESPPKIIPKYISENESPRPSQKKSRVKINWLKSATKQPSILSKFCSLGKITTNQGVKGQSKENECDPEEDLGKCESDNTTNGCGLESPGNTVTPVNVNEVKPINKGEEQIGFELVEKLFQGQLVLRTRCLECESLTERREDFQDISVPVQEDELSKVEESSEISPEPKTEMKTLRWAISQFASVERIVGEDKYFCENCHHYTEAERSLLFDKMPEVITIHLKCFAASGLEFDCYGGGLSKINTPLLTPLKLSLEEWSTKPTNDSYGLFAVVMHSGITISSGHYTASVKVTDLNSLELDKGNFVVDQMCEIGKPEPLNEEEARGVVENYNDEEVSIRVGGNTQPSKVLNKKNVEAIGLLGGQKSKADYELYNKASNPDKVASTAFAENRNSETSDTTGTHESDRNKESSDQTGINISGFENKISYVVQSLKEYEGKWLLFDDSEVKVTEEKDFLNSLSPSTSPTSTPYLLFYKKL
- Sequence (Q8TAF3 whole entry partner): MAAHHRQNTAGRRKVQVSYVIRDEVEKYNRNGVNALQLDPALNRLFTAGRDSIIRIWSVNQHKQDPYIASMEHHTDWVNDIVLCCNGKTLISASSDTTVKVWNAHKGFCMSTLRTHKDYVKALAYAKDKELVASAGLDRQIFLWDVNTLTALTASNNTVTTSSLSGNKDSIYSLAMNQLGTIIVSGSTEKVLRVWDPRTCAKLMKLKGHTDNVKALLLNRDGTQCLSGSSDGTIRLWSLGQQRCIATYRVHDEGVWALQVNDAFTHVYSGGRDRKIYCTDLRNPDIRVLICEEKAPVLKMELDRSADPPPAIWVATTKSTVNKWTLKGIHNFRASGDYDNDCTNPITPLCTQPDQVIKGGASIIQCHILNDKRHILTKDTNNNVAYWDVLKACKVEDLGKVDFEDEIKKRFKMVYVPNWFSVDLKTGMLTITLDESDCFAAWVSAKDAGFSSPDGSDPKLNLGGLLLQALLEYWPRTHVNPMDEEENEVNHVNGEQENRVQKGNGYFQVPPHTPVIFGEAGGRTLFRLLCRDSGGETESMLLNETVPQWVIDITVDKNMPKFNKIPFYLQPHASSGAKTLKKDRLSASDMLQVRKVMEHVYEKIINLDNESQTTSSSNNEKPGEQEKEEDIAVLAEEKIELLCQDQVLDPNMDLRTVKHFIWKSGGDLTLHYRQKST
- method-description: In vitro inhibitory activity against USP1 (Ubiquitin Rhodamine 110 fluorescence detection, 384-well plate)
- conditions: Ub-Rho substrate, 1 hour pre-incubation, read after 30 minutes
Quick reference: IC50 of the listed items.

molecule	IC50 / µM
COc1cnc(-c2c(OC)ncnc2C2CC2)nc1N(C)Cc1ccc(-c2ccccn2)cc1 [Example 19]	0.024
COc1cnc(-c2c(OC)ncnc2C2CC2)nc1N(C)CC12C3C4C1C1C2C3C41c1nc(C(F)(F)F)cn1C (stereo not shown) [Example 207]	0.0035
COc1cc(CNc2nc(-c3c(OC)ncnc3C3CC3)ncc2OC)ccc1-c1nc(C(F)(F)F)cn1C [Example 101]	0.015
COc1cnc(-c2ccccc2C(C)C)nc1NCC12CCC(c3ccc(C(F)(F)F)cn3)(CC1)CC2 [Example 23]	0.033
Cc1cc(C(F)(F)F)nn1-c1ccc(CNc2nc(-c3c(Cl)cnn3C(C)C)nc3ccoc23)cc1 [Example 168]	0.0012
CC(C)c1ccccc1-c1ncc2c(n1)N(C[C@H]1CC[C@@H](c3nc(C(F)(F)F)cn3C)CC1)CCO2 [Example 14]	0.06
COc1cnc(-c2c(OC)ncnc2C2CC2F)nc1NCC12CCC(c3nc(C(F)(F)F)cn3C)(CC1)CC2 (stereo not shown) [Example S18]	0.012

====

- assayed-system: Recombinant human His6-USP1/His6-UAF1 complex protein (Homo sapiens, UniProt O94782)
- Construct: His6
- method-description: In vitro inhibitory activity against USP1 (Ubiquitin Rhodamine 110 fluorescence detection, 384-well plate)
- conditions: Ub-Rho substrate, 1 hour pre-incubation, read after 30 minutes
Each entry below carries its reported IC50.
reported-endpoint: IC50 (nM)

molecule	measured-value
[2H]C([2H])([2H])Oc1ncnc(C2CC2)c1-c1ncc(OC)c(N(C)CC23CCC(c4nc(C(F)(F)F)cn4C)(CC2)CC3)n1 [Example S9]	3.5
COc1cc(CNc2nc(-c3ccccc3C(C)C)ncc2OC)ccc1-n1nc(C(F)(F)F)cc1C [Example 69]	9.2
COc1cnc(-c2c(C)ncn2C(C)C)nc1NCc1ccc(-c2nc(C(F)(F)F)cn2C)cc1 [Example 147]	364
c1ccc(-c2ccc(CNc3nc(-c4cccnc4C4CC4)nc4ccoc34)cc2)nc1 [Example 155]	12
CC(C)c1ccccc1-c1ncc(C(F)(F)F)c(NCc2ccc(-c3ccccn3)cc2)n1 [Example 16]	30.6
Cc1cc(C(F)(F)F)nn1-c1ccc(CN2C(=O)COc3cnc(-c4ccccc4C(C)C)nc32)cc1 [Example 15]	6.8
CCOCCOc1ccc(CNc2nc(-c3ccccc3C(C)C)nc3ccoc23)cc1 [Example 79]	4.5
COc1cnc(-c2c(Cl)cnn2C(C)C)nc1NCc1ccc(-c2ccccn2)cc1 [Example 162]	3.9

====

Measured pIC50 by item
- assayed-system: Recombinant human His6-USP1/His6-UAF1 complex protein (Homo sapiens, UniProt O94782)
- Construct: His6
- method-description: In vitro inhibitory activity against USP1 (Ubiquitin Rhodamine 110 fluorescence detection, 384-well plate)
- conditions: Ub-Rho substrate, 1 hour pre-incubation, read after 30 minutes
pIC50: −log10 of the molar value.

compound	assayed-system	pIC50
COc1cnc(-c2cccnc2C2CC2)nc1NCc1ccc(-n2nc(C(F)(F)F)cc2C)cc1 [Example 154]	Recombinant human His6-USP1/His6-UAF1 complex protein (Homo sapiens, UniProt O94782)	8.21
COc1cc(-c2nc(C(F)(F)F)cn2C)ccc1CNc1nc(-c2c(OC)ncnc2C2CC2)ncc1OC [Example 100]	Recombinant human His6-USP1/His6-UAF1 complex protein (Homo sapiens, UniProt O94782)	8.39
COc1cc(CNc2nc(-c3ccccc3C(C)C)nc3ccoc23)ccc1-c1nc(C(F)(F)F)cn1C [Example 82]	Recombinant human His6-USP1/His6-UAF1 complex protein (Homo sapiens, UniProt O94782)	8.77
COc1cnc(-c2c(OC)ncnc2C2CC2(F)F)nc1N(C)CC1CCC(c2nc(C(F)(F)F)cn2C)CC1 (stereo not drawn) [Example S49]	Recombinant human His6-USP1/His6-UAF1 complex protein (Homo sapiens, UniProt O94782)	8.51
COc1cnc(-c2c(Cl)cnn2C2CC2)nc1N(C)Cc1ccc(-c2nc(C(F)(F)F)cn2C)cc1 [Example 191]	Recombinant human His6-USP1/His6-UAF1 complex protein (Homo sapiens, UniProt O94782)	8.37
COc1cc(CNc2nc(-c3ccccc3C3CC3)ncc2OC)ccc1-c1nc(C(F)(F)F)cn1C [Example 172]	Recombinant human His6-USP1/His6-UAF1 complex protein (Homo sapiens, UniProt O94782)	7.92
CC(C)c1ccccc1-c1nc(NCc2ccc(-c3ccccn3)cc2)c2[nH]ccc2n1 [Example 36]	Recombinant human His6-USP1/His6-UAF1 complex protein (Homo sapiens, UniProt O94782)	7.65
[2H]C([2H])([2H])N(C[C@H]1CC[C@H](c2nc(C(F)(F)F)cn2C)CC1)c1nc(-c2c(OC)ncnc2C2CC2)ncc1OC [Example S22]	Recombinant human His6-USP1/His6-UAF1 complex protein (Homo sapiens, UniProt O94782)	8.34
COc1cnc(-c2c(OC)ncnc2C2CC2)nc1NCc1ccc(-c2ccccn2)cc1 [Example 94]	Recombinant human His6-USP1/His6-UAF1 complex protein (Homo sapiens, UniProt O94782)	8.19
CC(C)c1ccccc1-c1ncc(N2CCOCC2)c(NCc2ccc(-c3nc(C(F)(F)F)cn3C)cc2)n1 [Example 87]	Recombinant human His6-USP1/His6-UAF1 complex protein (Homo sapiens, UniProt O94782)	8.21
COc1cnc(-c2c(OC)ncnc2C2CC2)nc1NCc1ccc(-c2nc(C(F)(F)F)cn2C(C)C)cc1 [Example 106]	Recombinant human His6-USP1/His6-UAF1 complex protein (Homo sapiens, UniProt O94782)	8.54
COc1cnn(C2CC2)c1-c1ncc(OC(F)F)c(NCc2ccc(-c3nc(C(F)(F)F)cn3C)cc2)n1 [Example 185]	Recombinant human His6-USP1/His6-UAF1 complex protein (Homo sapiens, UniProt O94782)	8.01
COc1cnc(-c2ccccc2N(C)C)nc1NCc1ccc(-c2nc(C(F)(F)F)cn2C)cc1 [Example 159]	Recombinant human His6-USP1/His6-UAF1 complex protein (Homo sapiens, UniProt O94782)	8.77
COc1cnc(-c2c(Cl)cnn2C(C)C)nc1N(C)CC12CCC(c3nc(C(F)(F)F)cn3C)(CC1)OC2 [Example S17]	Recombinant human His6-USP1/His6-UAF1 complex protein (Homo sapiens, UniProt O94782)	8.21
COc1cnc(-c2c(C)cnn2C2CC2)nc1N(O)Cc1ccc(-c2nc(C(F)(F)F)cn2C)cc1 [Example 205]	Recombinant human His6-USP1/His6-UAF1 complex protein (Homo sapiens, UniProt O94782)	7.37
COc1cnc(-c2c(OC)ncnc2C2CC2)nc1NCC12CCC(c3nc(C(F)(F)F)cn3C)(CC1)OC2 [Example 210]	Recombinant human His6-USP1/His6-UAF1 complex protein (Homo sapiens, UniProt O94782)	7.07
COc1cnc(-c2cccc3ccn(C)c23)nc1NCc1ccc(-n2nc(C(F)(F)F)cc2C)cc1 [Example 144]	Recombinant human His6-USP1/His6-UAF1 complex protein (Homo sapiens, UniProt O94782)	7.16
COc1cnc(-c2c(C)cnn2C(C)C)nc1N(C)Cc1ccc(-c2nc(C(F)(F)F)cn2C)cc1 [Example 200]	Recombinant human His6-USP1/His6-UAF1 complex protein (Homo sapiens, UniProt O94782)	8.55
COc1ncnc(C2CC2)c1-c1ncc(OC(F)F)c(NCC2CCN(c3nc(C(F)(F)F)cn3C)CC2)n1 [Example 133]	Recombinant human His6-USP1/His6-UAF1 complex protein (Homo sapiens, UniProt O94782)	7.82
COc1cnc(-c2c(C)ncnc2OC2CC2)nc1N(C)C[C@H]1CC[C@H](c2nc(C(F)(F)F)cn2C)CC1 [Example S32]	Recombinant human His6-USP1/His6-UAF1 complex protein (Homo sapiens, UniProt O94782)	6.97
COc1cnc(-c2c(OC)ncnc2C(F)(F)F)nc1N(C)C[C@H]1CC[C@H](c2nc(C(F)(F)F)cn2C)CC1 [Example S36]	Recombinant human His6-USP1/His6-UAF1 complex protein (Homo sapiens, UniProt O94782)	8.15
COc1cc(-n2nc(C(F)(F)F)cc2C)ccc1CNc1nc(-c2c(OC)ncnc2C2CC2)ncc1OC [Example 102]	Recombinant human His6-USP1/His6-UAF1 complex protein (Homo sapiens, UniProt O94782)	8.36
Cn1cc(C(F)(F)F)nc1-c1ccc(CNc2nc(-c3ccccc3C3CC3)nc3ccoc23)cc1 [Example 173]	Recombinant human His6-USP1/His6-UAF1 complex protein (Homo sapiens, UniProt O94782)	9.00
COc1cnc(-c2c(OC)cnn2C2CC2)nc1NCC1CCN(c2nc(C(F)(F)F)cn2C)CC1 [Example 184]	Recombinant human His6-USP1/His6-UAF1 complex protein (Homo sapiens, UniProt O94782)	7.03
COc1cnc(-c2ccccc2C(C)C)nc1NCc1ccc(-c2ccc(C)cn2)cc1 [Example 66]	Recombinant human His6-USP1/His6-UAF1 complex protein (Homo sapiens, UniProt O94782)	8.25
CC(C)n1ncc(Cl)c1-c1nc(NCc2ccc(-c3ccccn3)cc2)c2occc2n1 [Example 166]	Recombinant human His6-USP1/His6-UAF1 complex protein (Homo sapiens, UniProt O94782)	8.68
COc1cnc(-c2c(C)cnn2C(C)C)nc1N(C)Cc1ccc(-n2nc(C(F)(F)F)cc2C)cc1 [Example 201]	Recombinant human His6-USP1/His6-UAF1 complex protein (Homo sapiens, UniProt O94782)	7.92
COc1cnc(-c2cccnc2C(C)C)nc1NCc1ccc(-c2nc(C(F)(F)F)cn2C)cc1 [Example 157]	Recombinant human His6-USP1/His6-UAF1 complex protein (Homo sapiens, UniProt O94782)	8.54
COc1cnc(-c2c(OC)ncnc2C2CC2)nc1NCc1ccc(-c2nc(C(F)(F)F)cn2C)cc1 [Example 29]	Recombinant human His6-USP1/His6-UAF1 complex protein (Homo sapiens, UniProt O94782)	8.32
COc1cnc(-c2c(OC)cnn2C(C)C)nc1NCc1ccc(-c2nc(C(F)(F)F)cn2C)cc1 [Example 180]	Recombinant human His6-USP1/His6-UAF1 complex protein (Homo sapiens, UniProt O94782)	7.82

Values compiled from patent EP4741386A1.
